Give IC50 for every item shown.
- experimental.target: C5aR (Homo sapiens (Human))
- run.description: Chemotaxis assay using U937 cells (C5aR mediated migration)
- test.parameters: read-out: Mig IC50

Please review the following examples before continuing.
molecule | IC50
Cc1cccc(OCC(C)C)c1-n1nc2c(c1-c1ccc(NC(N)=O)cc1Cl)CN(c1ncc(C(F)(F)F)cc1F)CC2 [Example 1.269] | ≤ 5 nM
Cc1cccc(OCC(C)C)c1-n1nc2c(c1-c1cc(F)c(NC(N)=O)cc1F)CN(c1ccc(Cl)cc1Cl)CC2 [Example 1.194] | ≤ 5 nM
Cc1cccc(OCC(C)C)c1-n1nc2c(c1-c1ccc(NC(N)=O)cc1)CN(c1cc(C(C)(C)C)ccn1)CC2 [Example 1.395] | 5 to 50 nM
CCc1cccc(CC)c1-n1nc2c(c1-c1ccc(NC(N)=O)c(F)c1)CN(Cc1ccccc1C(F)(F)F)CC2 [Example 1.244] | ≤ 5 nM
Cc1cccc(C)c1-n1nc2c(c1-c1cc(F)c(NC(N)=O)cc1F)CN(c1ncc(C(C)C)cc1Cl)CC2 [Example 1.113] | ≤ 5 nM
CCc1cccc(CC)c1-n1nc2c(c1-c1cc(F)c(NC(N)=O)cc1F)CN(Cc1ccc(Cl)cc1C(F)(F)F)CC2 [Example 1.076] | ≤ 5 nM
Cc1cccc(OCC(C)C)c1-n1nc2c(c1-c1cc(F)c(NC(N)=O)cc1F)CN(C(c1ccccc1)C(F)(F)F)CC2 (centres unmarked) [Example 1.196] | ≤ 5 nM
Cc1cccc(OCC(C)C)c1-n1nc2c(c1-c1ccc(NC(N)=O)c(F)c1)CN(CC(C)C(F)(F)F)CC2 (centres unmarked) [Example 1.262] | ≤ 5 nM
COc1cccc(C)c1-n1nc2c(c1-c1ccc(NC(C)=O)cc1)CN(c1ccccc1C(C)C)CC2 [Example 1.483] | > 500 nM
Cc1cccc(OCC(C)C)c1-n1nc2c(c1-c1ccc(NC(N)=O)c(Cl)c1)CN(c1ncc(C(F)(F)F)cc1F)CC2 [Example 1.275] | ≤ 5 nM

For the 4 molecules below, give their IC50 values.
1. Cc1ccccc1CN1CCc2nn(-c3c(C)cccc3OCC(C)C)c(-c3ccc(NC(N)=O)cc3)c2C1 [Example 1.371]
2. Cc1cc(C(F)(F)F)ccc1CN1CCc2nn(-c3c(C)cccc3OCC(C)C)c(-c3ccc(NC(N)=O)cc3)c2C1 [Example 1.384]
3. Cc1cccc(C)c1-n1nc2c(c1-c1cc(F)c(NC(N)=O)cc1F)CN(c1ncc(Cl)cc1Cl)CC2 [Example 1.180]
4. Cc1cccc(OCC(C)C)c1-n1nc2c(c1-c1ccc(NC(N)=O)cc1)CN(c1ccc(C(F)(F)F)cc1)CC2 [Example 1.407]

Result ::
1. 5 to 50 nM
2. 5 to 50 nM
3. ≤ 5 nM
4. 5 to 50 nM

###

Please provide measured IC50 for the entries that follow.
- experimental.target: C5aR (Homo sapiens (Human), UniProt P21730)
- Sequence (P21730 whole entry): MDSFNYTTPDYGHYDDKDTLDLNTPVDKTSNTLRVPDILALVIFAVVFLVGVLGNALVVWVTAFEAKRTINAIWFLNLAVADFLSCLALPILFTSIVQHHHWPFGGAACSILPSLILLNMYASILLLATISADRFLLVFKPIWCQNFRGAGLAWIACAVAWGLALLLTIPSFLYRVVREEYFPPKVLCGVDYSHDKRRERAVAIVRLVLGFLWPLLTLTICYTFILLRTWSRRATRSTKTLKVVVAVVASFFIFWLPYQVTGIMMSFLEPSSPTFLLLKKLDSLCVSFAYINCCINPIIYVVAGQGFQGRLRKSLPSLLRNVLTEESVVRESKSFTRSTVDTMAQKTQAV
- run.description: Chemotaxis assay using U937 cells (C5aR mediated migration)
- test.parameters: read-out: Mig IC50

Worked examples, 4 compounds total:
compound | IC50
CC(C)COc1cccc(F)c1-n1nc2c(c1-c1cc(F)c(NC(N)=O)cc1F)CN(C(C)(C)c1ccccc1)CC2 [Example 1.198] | ≤ 5 nM
Cc1cccc(OCC(C)C)c1-n1nc2c(c1-c1cc(F)c(NC(N)=O)c(F)c1)CN(c1ncc(C(F)(F)F)cc1F)CC2 [Example 1.263] | 50 to 500 nM
Cc1cccc(OCC(C)C)c1-n1nc2c(c1-c1ccc(NC(N)=O)cc1)CN(c1cc(C(C)(C)O)ccc1F)CC2 [Example 1.363] | 50 to 500 nM
Cc1cccc(OCC(C)C)c1-n1nc2c(c1-c1ccc(NC(N)=O)cc1)CN(c1ccc(C(C)(C)C)cn1)CC2 [Example 1.370] | 5 to 50 nM

Provide IC50 values for the following items, in order.
1. Cc1cccc(OCC(C)C)c1-n1nc2c(c1-c1ccc(NC(N)=O)c(F)c1)CN(C(=O)C1CCCC1)CC2 [Example 1.238]
2. Cc1cccc(OCC(C)C)c1-n1nc2c(c1-c1ccc(NC(N)=O)cc1)CN(C(=O)c1ccccc1)CC2 [Example 1.431]
3. CCC(CC)N1CCc2nn(-c3c(C)cccc3OCC(C)C)c(-c3ccc(NC(N)=O)c(F)c3)c2C1 [Example 1.255]

Result ::
1: 5 to 50 nM; 2: 50 to 500 nM; 3: ≤ 5 nM

Measured values drawn from patent US11478460B2 for this set.
